Test system: EGFR WT dependent A431 cells
experiment-description: Tumor cell proliferation assay A431 (EGFR WT dependent)
Format: cell-based
condition-summary: Homo sapiens, A-431; 72 h, CellTiter-Glo; read-out: GI50 A431 EGFR wt amp.
endpoint: GI50 (µM)

Here's what some known entries look like.
>  <smiles-text>
C=CC(=O)N1CCN(c2ncc3ncnc(Nc4ccc(Oc5ccc6c(c5)ncn6C)c(F)c4)c3n2)CC1

>  <test-system>
EGFR WT dependent A431 cells

>  <endpoint>
GI50

>  <reported-result>
2.64

$$$$
>  <smiles-text>
C=CC(=O)N1CCN(c2ncc3ncnc(Nc4ccc(Oc5ccc6c(c5)ncn6C)cc4F)c3n2)CC1

>  <test-system>
EGFR WT dependent A431 cells

>  <endpoint>
GI50

>  <reported-result>
4.81

$$$$
>  <smiles-text>
C=CC(=O)N1CCN(c2ncc3ncnc(Nc4cc(F)c(Oc5ccc6c(c5)ncn6C)c(Cl)c4)c3n2)CC1

>  <test-system>
EGFR WT dependent A431 cells

>  <endpoint>
GI50

>  <reported-result>
3.93

$$$$

I = C#Cc1cc(Nc2ncnc3cnc(N4CCN(C(=O)C=C)CC4)nc23)ccc1Oc1ccc2c(c1)ncn2C
II = C=CC(=O)N1CCN(c2ncc3ncnc(Nc4cc(Br)c(Oc5ccc6c(c5)ncn6C)c(Br)c4)c3n2)CC1
Prompt: Hey, which is lower on measured GI50, I or II ? Please indicate the selected item by its label.
Response: II
(II: 2.51 µM, I: 4.66 µM)

###

test-system: EGFR wild type (WT) (Homo sapiens, UniProt P00533)
Sequence (P00533 25-1210): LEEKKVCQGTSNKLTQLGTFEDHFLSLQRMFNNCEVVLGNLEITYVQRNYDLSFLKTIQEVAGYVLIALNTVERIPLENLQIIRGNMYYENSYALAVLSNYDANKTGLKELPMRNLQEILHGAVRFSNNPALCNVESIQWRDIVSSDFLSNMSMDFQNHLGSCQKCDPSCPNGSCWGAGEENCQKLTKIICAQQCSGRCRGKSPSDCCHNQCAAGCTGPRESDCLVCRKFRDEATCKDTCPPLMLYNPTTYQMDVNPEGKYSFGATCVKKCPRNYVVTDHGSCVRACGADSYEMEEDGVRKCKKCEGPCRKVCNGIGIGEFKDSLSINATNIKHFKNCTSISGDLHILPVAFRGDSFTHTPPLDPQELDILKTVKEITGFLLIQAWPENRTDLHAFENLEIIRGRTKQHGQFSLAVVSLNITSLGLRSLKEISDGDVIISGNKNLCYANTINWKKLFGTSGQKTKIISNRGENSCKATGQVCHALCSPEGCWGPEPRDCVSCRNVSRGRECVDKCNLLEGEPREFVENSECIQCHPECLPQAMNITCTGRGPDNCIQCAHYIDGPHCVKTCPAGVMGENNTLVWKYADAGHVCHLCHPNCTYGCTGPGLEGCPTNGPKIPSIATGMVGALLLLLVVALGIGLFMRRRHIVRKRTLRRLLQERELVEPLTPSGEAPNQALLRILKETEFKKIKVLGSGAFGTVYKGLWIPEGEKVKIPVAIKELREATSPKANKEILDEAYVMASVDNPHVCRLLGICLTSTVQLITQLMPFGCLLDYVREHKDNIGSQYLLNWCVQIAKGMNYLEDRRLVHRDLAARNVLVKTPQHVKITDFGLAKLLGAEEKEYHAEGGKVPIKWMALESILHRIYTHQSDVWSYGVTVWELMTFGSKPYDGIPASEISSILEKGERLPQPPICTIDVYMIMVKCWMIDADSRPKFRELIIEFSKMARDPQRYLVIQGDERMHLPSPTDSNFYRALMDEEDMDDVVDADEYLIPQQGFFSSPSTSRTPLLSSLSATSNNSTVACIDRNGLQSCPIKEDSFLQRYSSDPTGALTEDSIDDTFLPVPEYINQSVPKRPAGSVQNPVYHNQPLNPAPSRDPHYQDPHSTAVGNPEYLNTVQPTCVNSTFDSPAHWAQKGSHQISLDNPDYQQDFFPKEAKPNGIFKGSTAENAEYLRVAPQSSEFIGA
experiment-description: pEGFR assay (AlphaScreen Surefire, HEK cells)
condition-summary: HEK cells expressing EGFR WT, phosphorylation at Tyr1068, 4 h
pIC50: −log10 of the molar value.
endpoint: pIC50

Here's what some known entries look like.
>  <molecule>
C=CC(=O)N1CCN(c2ncc3ncnc(Nc4cc(Br)c(Oc5ccc6c(c5)ncn6C)c(Br)c4)c3n2)CC1 [Compound I-9]

>  <endpoint>
pIC50

>  <reported-result>
6.31

$$$$
>  <molecule>
C=CC(=O)N1CCN(c2ncc3ncnc(Nc4cc(F)c(Oc5ccc6c(c5)ncn6C)c(F)c4)c3n2)CC1 [Compound I-11]

>  <endpoint>
pIC50

>  <reported-result>
5.93

$$$$

I = C=CC(=O)N1CCN(c2ncc3ncnc(Nc4cc(F)c(Oc5ccc6c(c5)ncn6C)c(Cl)c4)c3n2)CC1 [Compound I-8]
II = C=CC(=O)N1CCN(c2ncc3ncnc(Nc4ccc(Oc5ccc6c(c5)ncn6C)cc4F)c3n2)CC1 [Compound I-12]
Prompt: Hey, which is lower on measured pIC50, I or II ? Please indicate the selected item by its label.
Response: II
(II: 6.06, I: 6.45)

I = C=CC(=O)N1CCN(c2ncc3ncnc(Nc4ccc(Oc5ccc6c(c5)ncn6C)c(Br)c4)c3n2)CC1 [Compound I-5]
II = C=CC(=O)N1CCN(c2ncc3ncnc(Nc4cc(Br)c(Oc5ccc6c(c5)ncn6C)cc4Cl)c3n2)CC1 [Compound I-10]
Prompt: Thinking about recorded pIC50 values, which is higher, I or II ? Please indicate the selected item by its label.
Response: I

1 = C=CC(=O)N1CCN(c2ncc3ncnc(Nc4ccc(Oc5ccc6c(c5)ncn6C)c(Cl)c4)c3n2)CC1 [Compound I-4]
2 = C=CC(=O)N1CCN(c2ncc3ncnc(Nc4ccc(Oc5ccc6c(c5)ncn6C)c(F)c4)c3n2)CC1 [Compound I-6]
3 = C#Cc1cc(Nc2ncnc3cnc(N4CCN(C(=O)C=C)CC4)nc23)ccc1Oc1ccc2c(c1)ncn2C [Compound I-2]
Prompt: Arrange the 3 molecules from largest to smallest pIC50. Answer by listing the labels in the requested order.
Response: 1, 3, 2
(1: 6.66, 3: 6.42, 2: 5.95)

a = C=CC(=O)N1CCN(c2ncc3ncnc(Nc4ccc(Oc5ccc6c(c5)ncn6C)c(C)c4)c3n2)CC1 [Compound I-1]
b = C=CC(=O)N1CCN(c2ncc3ncnc(Nc4ccc(Oc5ccc6c(c5)ncn6C)c(OC)c4)c3n2)CC1 [Compound I-3]
Prompt: Thinking about recorded pIC50 values, which is higher, a or b ? Please indicate the selected item by its label.
Response: a
(a: 6.58, b: 5.93)
